# Test system: CD2F1 mice, L1210 leukemia ip, survival T/C
# protocol text: NCI In Vivo Anticancer Drug Screen. Data for tumor model L1210 Leukemia (intraperitoneal) in CD2F1 (CDF1) mice
# applied conditions: endpoint: mean survival time; dose: 200.0 mg/kg/injection; schedule: Q04DX003 (ip); vehicle: Klucel (hydroxypropylcellulose) (HPC); higher = longer survival
Inconclusive results and toxic doses are left out.
What T/C was measured for each of the following?

O=C1OC(=O)c2ccc([N+](=O)[O-])c3cccc1c23 : 106 % of control

Your task in this section: give T/C for each listed record.
1. COc1ccc(NC(=O)Nc2cc(C)on2)c(Cl)c1
2. O=c1ccc2nc3cc(Cl)ccc3sc-2c1

Resp:
106 % of control
94 % of control

* * *

Would you kindly list T/C for each of these compounds?
# Tested on: CD2F1 mice, L1210 leukemia ip, survival T/C
# protocol text: NCI In Vivo Anticancer Drug Screen. Data for tumor model L1210 Leukemia (intraperitoneal) in CD2F1 (CDF1) mice
# applied conditions: endpoint: mean survival time; dose: 12.5 mg/kg/injection; schedule: Q01DX005 (ip); vehicle: water; higher = longer survival
# Method: The antitumor activity of compounds was measured in mice bearing transplantable tumors. Survival or tumor size were measured and the results are expressed as the measurement made in the treated group (T) divided by the measurement made in the vehicle treated control group (C). The tumor model used in this assay is L1210 Leukemia (intraperitoneal) in CD2F1 (CDF1) mice
Inconclusive results and toxic doses are left out.

Answer for every listed entry: what is its T/C? The entries follow.
1. CSc1ncnc2nn(C3OC(CO)C(O)C3O)cc12 (stereo not given)
2. CC1OC(n2cc(Br)c(=O)[nH]c2=O)C(O)C(O)C1O (stereo not given)
3. CN1CCN(c2ncnc3c2ncn3C2OC(CO)C(O)C2O)CC1 (stereo not given)
4. Nc1nccc2c1nnn2C1OC(CO)C(O)C1O (stereo not given)
5. Cc1cn(C2CC3OP(N(C)C)OCC3O2)c(=O)[nH]c1=O (stereo not given)

Resp:
1: 103 % of control; 2: 99 % of control; 3: 106 % of control; 4: 102 % of control; 5: 100 % of control

* * *

# Tested on: CD2F1 mice, L1210 leukemia ip, survival T/C
# protocol text: NCI In Vivo Anticancer Drug Screen. Data for tumor model L1210 Leukemia (intraperitoneal) in CD2F1 (CDF1) mice
# applied conditions: endpoint: mean survival time; dose: 200.0 mg/kg/injection; schedule: Q04DX003 (ip); vehicle: saline; higher = longer survival
Toxic doses and inconclusive results are not listed.
Provide the reported T/C of each item.

c1ccc2c3c(ccc2c1)-c1oncc1CC3 : 91 % of control
COC(=O)C(=O)c1ccccc1 : 102 % of control
CCCCCCOC(=O)C[n+]1ccc(C(N)=O)cc1 : 94 % of control

Below are some molecules; for each one, tell me its T/C.
1. NC1=NCNC(=O)N1
2. c1cc[n+](CC[n+]2ccccc2)cc1
3. CCN(CCNc1ccc(C)c2sc3cc(Cl)ccc3c(=O)c12)CC(C)O (configuration not stated)
4. O=CC(O)C(Cl)C(Cl)C(O)CCl (configuration not stated)

Resp:
1: 96 % of control; 2: 100 % of control; 3: 94 % of control; 4: 100 % of control

* * *

Would you mind telling me the reported T/C of each entry?
# Tested on: CD2F1 mice, L1210 leukemia ip, survival T/C
# protocol text: NCI In Vivo Anticancer Drug Screen. Data for tumor model L1210 Leukemia (intraperitoneal) in CD2F1 (CDF1) mice
# applied conditions: endpoint: mean survival time; dose: 200.0 mg/kg/injection; schedule: Q04DX003 (ip); vehicle: saline with Tween-80; higher = longer survival
Toxic doses and inconclusive results are not listed.

Examples with answers:
O=[N+]([O-])c1ccc(N/N=C2/C3CCC(C3)C2C(O)(C(F)(F)F)C(F)(F)F)c([N+](=O)[O-])c1 (stereo unspecified) : 94 % of control
COc1cc(/C=N/N2CCCCC2)cc(OC)c1OC : 95 % of control
CCc1ccc(C#N)cc1O : 100 % of control

Provide T/C values for the following items, in order.
1. COC1=CC(=O)C(C2CC(=O)c3c(O)cc(O)cc3O2)=CC1=O (stereo unspecified)
2. COC(=O)C(=O)Cc1cc(OC)cc(=O)o1

Resp:
100 % of control
101 % of control

Batch request: T/C per item, same order as input.
1. N#C[S-].N#C[S-].[Au+3].[Au+3].[CH3-].[CH3-].[CH3-].[CH3-]
2. CON(C)CC(O)c1ccccc1 (stereo unspecified)
3. NC(=O)CC(NC(=O)CCl)C(=O)O (stereo unspecified)

Resp:
1: 98 % of control; 2: 92 % of control; 3: 92 % of control

Values were extracted from PubChem BioAssay AID256.
